Target: Polyadenylate-binding protein 1 (Homo sapiens) (UniProt P11940)
Sequence (P11940 whole entry, looked up): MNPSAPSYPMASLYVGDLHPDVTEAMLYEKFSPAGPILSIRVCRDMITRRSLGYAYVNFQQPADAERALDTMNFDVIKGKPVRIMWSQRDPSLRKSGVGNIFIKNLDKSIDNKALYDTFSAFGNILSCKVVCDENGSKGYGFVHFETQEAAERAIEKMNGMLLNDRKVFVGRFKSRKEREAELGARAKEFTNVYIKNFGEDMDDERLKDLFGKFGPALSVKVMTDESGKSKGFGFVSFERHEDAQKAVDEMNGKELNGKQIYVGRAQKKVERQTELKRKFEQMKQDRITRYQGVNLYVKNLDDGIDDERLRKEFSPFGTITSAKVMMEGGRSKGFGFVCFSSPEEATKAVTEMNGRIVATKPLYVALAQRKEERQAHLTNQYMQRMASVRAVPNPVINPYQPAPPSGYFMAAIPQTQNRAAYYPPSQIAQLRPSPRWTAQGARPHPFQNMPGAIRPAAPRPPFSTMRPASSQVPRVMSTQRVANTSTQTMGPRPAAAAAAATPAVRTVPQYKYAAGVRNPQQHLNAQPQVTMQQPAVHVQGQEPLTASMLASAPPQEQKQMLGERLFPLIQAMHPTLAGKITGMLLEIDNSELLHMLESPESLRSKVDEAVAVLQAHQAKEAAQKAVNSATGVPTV
Assay: PABP poly(A) RNA binding inhibitors, primary screen, biochemical, fluorescence polarization, uHTS (AID 2014);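 note: calls also rest on retests at 20 µM and on dose response follow-up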
Settings: at 35 µM
About 3,000 (1%) of roughly 290,000 compounds were called active. The rule behind the calls is not given here. The sample holds actives, similar compounds and a random draw of the others, so the mix is not that of the screen.
Give one outcome, nothing more. List: active, inactive

Some entries whose results are on file:
# compound, assignedClass
rows = [
    ("O=c1ccn(Cc2ccccc2Cl)cc1", "inactive"),
    ("CC1(C(=O)NCCc2c[nH]c3ccccc23)C=CC2(CCCCC2)N1C(=O)c1ccccc1 (stereo not drawn)", "inactive"),
    ("COc1ccc(-c2ocnc2C(=O)Nc2ccc3c(c2)CCC3)cc1", "inactive"),
]

State the result this test recorded for Cc1ccc(CCC(=O)Nc2ncc(Cc3cc(Cl)ccc3Cl)s2)o1 .
inactive

Could you please tell me the result logged for COCc1cc(=O)n2[nH]c(C)c(-c3ccccc3)c2n1 in this assay?
inactive

# fetch the recorded call for CC1(OC(=O)CCc2ccccc2)C(=O)C=C2C=C(c3ccc(C#N)cc3)N(CCc3ccccn3)C=C2C1=O (stereo not drawn) here
inactive

Kindly provide the recorded test outcome for the following compound: Cc1ccc(S(=O)(=O)N(CC(=O)NCc2ccco2)c2ccccc2C)cc1
inactive
